Cited source for all entries: patent US5679770A

# tested_target: T1, Human neutrophil elastase (Homo sapiens, UniProt P08246)
# T1 construct: purchased CALBIOCHEM
# T1 sequence (P08246 30-267): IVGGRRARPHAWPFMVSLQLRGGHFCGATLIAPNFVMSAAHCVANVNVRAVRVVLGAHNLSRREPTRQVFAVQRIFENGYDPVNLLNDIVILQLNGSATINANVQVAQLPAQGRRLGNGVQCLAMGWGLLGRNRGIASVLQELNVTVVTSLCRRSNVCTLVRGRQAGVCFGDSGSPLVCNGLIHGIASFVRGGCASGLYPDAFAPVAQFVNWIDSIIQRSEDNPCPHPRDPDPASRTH
# experiment_summary: Human elastase-inhibiting activity (substrate STANA)
# Assay type: biochemical
# protocol_conditions: relative to Q19K/Y46D
metric_name: elastase-inhibiting activity, times higher than that of polypeptide Q19K/Y46D

[[record]]
molecule = "R11Q/Q19K/Y46D: formula 1 sequence with Gln for position 7 Arg, Lys for position 15 Gln, Asp for position 42 Tyr; SEQ. I.D. NO. 37 (protein) AACNLPIVQGPCRAFIKLWAFDAVKGKCVLFPYGGCQGNGNKFDSEKECREYCGVPGDGDEELLRFSN"
result_value = "about 3 times"

[[record]]
molecule = "R11D/Q19K/Y46D: formula 1 sequence with Asp for position 7 Arg, Lys for position 15 Gln, Asp for position 42 Tyr; SEQ. I.D. NO. 38 (protein) AACNLPIVDGPCRAFIKLWAFDAVKGKCVLFPYGGCQGNGNKFDSEKECREYCGVPGDGDEELLRFSN"
result_value = "about 3 times"

